Tested on: Escherichia coli TOP10;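 note: peptides expressed intracellularly from a pBAD plasmid library in pooled LB shake-flask culture, induced with 0.3% L-arabinose, DNA abundance read by NGS, three biological replicates, DESeq2 with apeglm shrinkage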
procedure.details: shrunken log2 fold change of peptide-encoding DNA abundance (4.5 h post-induction vs induction); higher = less antimicrobial activity (less host growth inhibition)
test.context: time post-induction: 4.5 h; library: site-saturation at positions 5, 18, 19, 20
measurement.type: shrunken log2 fold change
Returns: the value as a bare number; no unit string appended.

Example cases with answers are listed next.
1. RRIRARPPRLPRPRPRPTYLPRP    -0.023
2. RRIRRRPPRLPRPRPRPPPRPRP    1.32
3. RRIRHRPPRLPRPRPRPWRAPRP    -0.0415
4. RRIRRRPPRLPRPRPRPYSEPRP    -0.154

Look up shrunken log2 fold change: RRIRYRPPRLPRPRPRPVRNPRP
-0.161

Look up shrunken log2 fold change: RRIRSRPPRLPRPRPRPNTQPRP
-0.274

Look up shrunken log2 fold change: RRIRARPPRLPRPRPRPCFHPRP
-0.0446

Look up shrunken log2 fold change: RRIRQRPPRLPRPRPRPGCRPRP
0.342

Look up shrunken log2 fold change: RRIRPRPPRLPRPRPRPNVEPRP
0.0775

Look up shrunken log2 fold change: RRIRIRPPRLPRPRPRPQEDPRP
-0.0165

Look up shrunken log2 fold change: RRIRQRPPRLPRPRPRPSYAPRP
0.0242

Look up shrunken log2 fold change: RRIRRRPPRLPRPRPRPFAWPRP
0.189

Look up shrunken log2 fold change: RRIRIRPPRLPRPRPRPNWQPRP
-0.0358

Look up shrunken log2 fold change: RRIRNRPPRLPRPRPRPTDKPRP
0.008

Look up shrunken log2 fold change: RRIRGRPPRLPRPRPRPDRYPRP
0.152
